Experiment: Phase 2 toxicokinetics of brincidofovir and cidofovir in plasma
Format: in vivo, Sprague-Dawley CD rats
Conditions: female, Sprague-Dawley CD, rat, plasma, intravenous, 1 mg/kg, brincidofovir 1 mg/kg, Female, Day 7, 2 h; read-out: brincidofovir Imputed Mean Concentration (IMC)
Assay Endpoint: concentration at 2 h (ng/mL)
Please give a number only; it is taken to be in ng/mL.

Form field concentration at 2 h, entry "CCCCCCCCCCCCCCCCOCCCOP(=O)(O)CO[C@H](CO)Cn1ccc(N)nc1=O" : 95.4

====

Assay: Phase 2 toxicokinetics of brincidofovir and cidofovir in plasma
Format: in vivo, Sprague-Dawley CD rats
Settings: male, Sprague-Dawley CD, rat, plasma, iv, 1 mg/kg, brincidofovir in plasma; 1 mg/kg 2-hour IV infusion, Male rats, Day 7; read-out: Tmax
Assay Endpoint: Tmax
Be sure to follow the number with its unit.

Form field Tmax, entry "CCCCCCCCCCCCCCCCOCCCOP(=O)(O)CO[C@H](CO)Cn1ccc(N)nc1=O" : 2 h

# credit: patent US20170368082A1
